# system.name: human V1b receptor (Homo sapiens, UniProt P47901)
# Sequence (P47901 whole entry): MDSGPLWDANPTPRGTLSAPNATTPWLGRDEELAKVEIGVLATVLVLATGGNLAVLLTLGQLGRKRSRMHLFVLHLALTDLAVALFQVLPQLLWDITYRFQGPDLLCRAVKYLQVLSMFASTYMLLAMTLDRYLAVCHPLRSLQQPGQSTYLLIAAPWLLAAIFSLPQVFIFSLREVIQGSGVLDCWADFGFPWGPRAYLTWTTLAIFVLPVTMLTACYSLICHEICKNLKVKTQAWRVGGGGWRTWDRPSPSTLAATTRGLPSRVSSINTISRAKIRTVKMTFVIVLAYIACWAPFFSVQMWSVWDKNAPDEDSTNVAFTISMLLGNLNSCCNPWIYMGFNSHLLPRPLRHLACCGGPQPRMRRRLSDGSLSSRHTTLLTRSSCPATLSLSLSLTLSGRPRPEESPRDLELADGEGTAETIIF
# protocol.notes: V1b binding assay (3H-AVP displacement, HEK-293 membranes)
# Design: expressed in transfected cells; host or cells: HEK-293 (membranes)
# experimental.parameters: 1.0 μM compound; read-out: V1b@1.0, % Inh
Catalogue of inhibition at 1 µM values
reported.property: inhibition at 1 µM (%)

O=C(NC(c1ccccc1)c1ccccc1)N1CCC(n2c(=O)n(CCCN3CCCC3)c3ccccc32)CC1 [Compound 96] :: 43
CC1CC(C)CN(CCCn2c(=O)n(C3CCN(C(=O)NC(c4ccccc4)c4ccccc4)CC3)c3ccccc32)C1 (stereo not shown) [Compound 101] :: 43
O=c1n(CCCN2CCCCC2)c2ccccc2n1C1CCN(C(=S)NCc2cccs2)CC1 [Compound 160] :: 27
O=c1n(CCCN2CCCCCCC2)c2ccccc2n1C1CCN(C(=S)NC(c2ccccc2)c2ccccc2)CC1 [Compound 142] :: 56
CN(C)c1ccc(CNC(=S)N2CCC(n3c(=O)n(CCCN4CCCCC4)c4ccccc43)CC2)cc1 [Compound 165] :: 20
CN1CCCC1CCn1c(=O)n(C2CCN(C(=O)NC(c3ccccc3)c3ccccc3)CC2)c2ccccc21 (stereo not shown) [Compound 94] :: 33
CN1CCN(CCCn2c(=O)n(C3CCN(C(=O)NC(c4ccccc4)c4ccccc4)CC3)c3ccccc32)CC1 [Compound 100] :: 36
